Value source: patent US7217688B2

Biological target: full length XIAP (Homo sapiens)
Sequence (P98170 whole entry): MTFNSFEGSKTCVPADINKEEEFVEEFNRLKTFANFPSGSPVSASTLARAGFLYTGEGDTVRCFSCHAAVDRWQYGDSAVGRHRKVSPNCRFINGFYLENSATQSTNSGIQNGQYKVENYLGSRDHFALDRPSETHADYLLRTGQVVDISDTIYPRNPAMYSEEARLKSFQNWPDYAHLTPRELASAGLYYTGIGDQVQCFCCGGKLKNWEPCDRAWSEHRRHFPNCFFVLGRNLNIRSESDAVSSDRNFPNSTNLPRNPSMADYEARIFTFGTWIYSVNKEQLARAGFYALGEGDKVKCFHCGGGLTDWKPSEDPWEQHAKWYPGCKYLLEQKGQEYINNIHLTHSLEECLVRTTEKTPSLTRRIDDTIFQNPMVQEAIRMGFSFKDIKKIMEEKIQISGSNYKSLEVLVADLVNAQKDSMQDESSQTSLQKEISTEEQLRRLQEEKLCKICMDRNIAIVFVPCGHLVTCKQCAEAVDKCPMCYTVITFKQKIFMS
Experiment: potency of IAP antagonists at restoring caspase-3 activity / SMAC competition assay (Table VIII)
Details: amount of compound necessary to restore caspase-3 activity to 50% of Vmax
endpoint: pEC50
Please note pEC50 is a logarithmic value: minus log10 of concentration in mol/L. Answer with that number alone.

Please review the following examples before continuing.
COc1ccc(CCN2CCCC2CN(C(=O)Nc2ccccc2)C(CNC(=O)Nc2ccccc2)Cc2ccc3ccccc3c2)cc1 (stereo not drawn) [TPI 1396-22] : 4.34
CCCCCCCN1C(=O)C(=O)N(C(CCCC)CNCc2ccccc2)CC1Cc1ccc2ccccc2c1 (stereo not drawn) [TPI 1391-21] : 4.47

Turning now to a further record.
**Q:** Let me know recorded pEC50 for CC(C)CC1CN(C(CNCc2ccccc2)Cc2ccc3ccccc3c2)C(=O)C(=O)N1CCc1cccc(C(F)(F)F)c1 (stereo not drawn) [TPI 1391-28] , thanks.
**A:** 4.60

* * *

Biological target: XIAP-inhibited caspase-3 (Homo sapiens)
Construct: in the derepression assay using full length XIAP; made in house; host or cells: bacteria
Assay: caspase derepression assay (XIAP-inhibited caspase-3, Ac-DEVD-AFC hydrolysis)
Type: biochemical
Settings: Table XIV, XIAP derepression assay
Recorded Activity, one value per entry.
Response body: numeric value in µM, unit text excluded.

**Q:** Let me know recorded Activity for Cc1ccc(CCN2CCC[C@@H]2CN(C)[C@@H](CNC(=O)Nc2ccccc2)CC2CCCCC2)cc1 [TPI 1577-8] , thanks.
**A:** 88

**Q:** Let me know recorded Activity for COc1ccc(CCN2CCC[C@H]2CN(C)[C@@H](CNC(=O)Nc2ccccc2)CC2CCCCC2)cc1 [TPI 1572-14] , thanks.
**A:** 103

**Q:** Let me know recorded Activity for COc1ccc(CCN2CCC[C@@H]2CN(C)[C@@H](CNC(=O)Nc2ccc(I)cc2)CC2CCCCC2)cc1 [TPI 1567-13] , thanks.
**A:** 58

**Q:** Let me know recorded Activity for CN(C[C@@H]1CCCN1CCC12CC3CC(CC(C3)C1)C2)[C@H](CCCCNC(=O)Nc1ccccc1)CNC(=O)Nc1ccccc1 [TPI 1567-18] , thanks.
**A:** 61

**Q:** Let me know recorded Activity for COc1ccc(CCN2CCC[C@H]2CN(C(=O)Nc2ccccc2)[C@H](C)CNC(=O)Nc2ccccc2)cc1 [TPI 1572-16] , thanks.
**A:** 149

**Q:** Let me know recorded Activity for CCNC(=O)NC[C@@H](CC1CCCCC1)N(C[C@@H]1CCCN1CCc1ccc(OC)cc1)C(=O)NCC [TPI 1572-20] , thanks.
**A:** 235

* * *

Target: XIAP-inhibited caspase-3 (Homo sapiens, UniProt P98170)
Construct: in the derepression assay using full length XIAP; made in house; host or cells: bacteria
Assay: caspase derepression assay (XIAP-inhibited caspase-3, Ac-DEVD-AFC hydrolysis)
Type: biochemical
Details: Table XIV, XIAP derepression assay
endpoint: Activity (µM)
Response body: numeric value in µM, unit text excluded.

Please review the following examples before continuing.
COc1ccc(CCN2C[C@@H](O)C[C@@H]2CN(C)[C@@H](CNC(=O)Nc2ccccc2)CC2CCCCC2)cc1 : 122
CCN1CCC[C@@H]1CN(C)[C@@H](CNC(=O)Nc1ccccc1)CC1CCCCC1 : 209
CCN1CCC[C@H]1CN(C(=O)Nc1ccccc1)[C@@H](CNC(=O)Nc1ccccc1)CC1CCCCC1 : 89

**Q:** Let me know recorded Activity for CNC[C@@H](CC1CCCCC1)N(C[C@@H]1CCCN1CCc1ccc(OC)cc1)C(=O)Nc1ccccc1 , thanks.
**A:** 132

**Q:** Let me know recorded Activity for COc1ccc(CCN2CCC[C@@H]2CN(C)[C@@H](CNC(=O)Nc2ccc(F)cc2)CC2CCCCC2)cc1 , thanks.
**A:** 124

* * *

System: Jurkat leukemia cells
Test: Jurkat cell death (Annexin V / propidium iodide flow cytometry)
Format: cell-based
Conditions: one-day exposure, 0 to 20 μM; read-out: EC50 for killing Jurkat leukemia cells
Protocol: The following assay was used to test the ability of individual compounds from the TPI 1396 and TPI 1391 libraries to induce apoptosis of cultured tumor cell lines. […] Cells were incubated for 20 minutes at room temperature in the dark and fluorescence was measured by flow cytometry (FACScan, Immunocytometry system; Becton-Dickinson; San Jose, Calif.). […]
pEC50: −log10 of the molar value.
endpoint: pEC50

**Q:** Let me know recorded pEC50 for CC(C)CC1CN(C(CNCc2ccccc2)Cc2ccc3ccccc3c2)C(=O)C(=O)N1CCc1cccc(C(F)(F)F)c1 (stereo not shown) , thanks.
**A:** ~5.19

* * *

Biological target: XIAP-inhibited caspase-3 (Homo sapiens, UniProt P98170)
Construct: in the derepression assay using full length XIAP; made in house; host or cells: bacteria
Experiment: caspase derepression assay (XIAP-inhibited caspase-3, Ac-DEVD-AFC hydrolysis)
Assay type: biochemical
Conditions: Table XIV, XIAP derepression assay
Assign yes (1) whenever Activity does not fall below 80 µM; assign no (0) whenever it does.

COc1ccc(CCN2CCC[C@H]2CN(C(=O)c2ccccc2)[C@@H](CNC(=O)c2ccccc2)CC2CCCCC2)cc1 : yes (1)

**Q:** // inclusive: Activity at least 80 µM? input: CN(C[C@H]1CCCN1CCc1ccc(F)cc1)[C@@H](CNC(=O)Nc1ccccc1)CC1CCCCC1
**A:** no (0)

**Q:** // inclusive: Activity at least 80 µM? input: COc1ccc(CCN2CCC[C@H]2CN(CCNC(=O)Nc2ccccc2)C(=O)Nc2ccccc2)cc1
**A:** yes (1)

**Q:** // inclusive: Activity at least 80 µM? input: COc1ccc(CCN2CCC[C@@H]2CN(C)[C@@H](CNC(=O)Nc2ccc(C)cc2)CC2CCCCC2)cc1
**A:** no (0)

**Q:** // inclusive: Activity at least 80 µM? input: COc1ccc(CCN2C[C@@H](O)C[C@@H]2CN(C(=O)Nc2ccccc2)[C@@H](CNC(=O)Nc2ccccc2)CC2CCCCC2)cc1
**A:** no (0)

**Q:** // inclusive: Activity at least 80 µM? input: COc1ccc(CCN2CCC[C@H]2CN(C(=O)Nc2ccc([N+](=O)[O-])cc2)[C@@H](CNC(=O)Nc2ccc([N+](=O)[O-])cc2)CC2CCCCC2)cc1
**A:** yes (1)

* * *

Biological target: XIAP-inhibited caspase-3 (Homo sapiens, UniProt P98170)
Construct: in the derepression assay using full length XIAP; made in house; host or cells: bacteria
Assay: caspase derepression assay (XIAP-inhibited caspase-3, Ac-DEVD-AFC hydrolysis)
Type: biochemical
Details: Table XIV, XIAP derepression assay
endpoint: Activity (µM)
Response body: numeric value in µM, unit text excluded.

Please review the following examples before continuing.
COc1ccc(CCN2CCC[C@H]2CN(C(=O)Nc2ccc(C)cc2)[C@@H](CNC(=O)Nc2ccc(C)cc2)CC2CCCCC2)cc1 [TPI 1572-21] : 69
COc1ccc(CCN2CCC[C@H]2CN(C(=O)Nc2ccc(F)cc2)[C@@H](CNC(=O)Nc2ccc(F)cc2)CC2CCCCC2)cc1 [TPI 1572-22] : 79
COc1ccc(CCN2CCC[C@@H]2CN(C)CCNC(=O)Nc2ccccc2)cc1 [TPI 1577-2] : 157

**Q:** Let me know recorded Activity for CN(C[C@H]1CCCN1CCc1ccccc1)[C@@H](CNC(=O)Nc1ccccc1)CC1CCCCC1 [TPI 1577-6] , thanks.
**A:** 113

**Q:** Let me know recorded Activity for COc1ccc(CCN2CCC[C@@H]2CN(C)[C@H](C)CNC(=O)Nc2ccccc2)cc1 [TPI 1577-1] , thanks.
**A:** 252

**Q:** Let me know recorded Activity for COc1ccc(CCN2CCC[C@@H]2CN(C)[C@@H](CNC(=O)Nc2ccc3ccccc3c2)CC2CCCCC2)cc1 [TPI 1577-9] , thanks.
**A:** 23
